Where do the numbers come from? From paper PMC6981637.

- Test target: UniProtKB O42275
- Applied conditions: read-out: AChE (IC50)
Give pIC50 for every item shown.
Scale: negative log10 of molar concentration, which is what pIC50 denotes.

# compound COc1ccc2c(c1)C(N1CCCC1=O)CCN2Cc1cc(-c2ccccc2)no1 (stereo not shown) ; its pIC50 = 4.28

Noted for O=C1CCCN1C1CCN(Cc2cc(-c3ccccc3)no2)c2ccc(Br)cc21 (stereo not shown) : its pIC50 reads 4.01

So for CCc1ccc2c(c1)C(N1CCCC1=O)CCN2Cc1cc(-c2cc(OC)c(OC)c(OC)c2)no1 (stereo not shown) , the logged pIC50 turned out to be 4.18

Short answer for O=C1CCCN1C1CCN(Cc2cc(-c3ccccc3)no2)c2ccc(F)cc21 (stereo not shown) : pIC50 was 3.93

Data point: COc1ccc(-c2cc(CN3CCC(N4CCCC4=O)c4cc(F)ccc43)on2)cc1OC (stereo not shown) ; pIC50 = 4.77

pIC50 measured on COc1ccc(-c2cc(CN3CCC(N4CCCC4=O)c4cc(C)ccc43)on2)cc1 (stereo not shown) = 4.52

Value of measured pIC50 for the entry COc1cc(-c2cc(CN3CCC(N4CCCC4=O)c4cc(Br)ccc43)on2)cc(OC)c1OC (stereo not shown) : 3.83

Looking up CCc1ccc2c(c1)C(N1CCCC1=O)CCN2Cc1cc(-c2ccc(OC)cc2)no1 (stereo not shown) , I see its pIC50 listed as 4.73

Measured pIC50, COc1ccc(-c2cc(CN3CCC(N4CCCC4=O)c4cc(Cl)ccc43)on2)cc1OC (stereo not shown) : 5.05

pIC50 recorded for this compound, COc1ccc(-c2cc(CN3CCC(N4CCCC4=O)c4cc(Cl)cc(Cl)c43)on2)cc1OC (stereo not shown) , is 4.09

The compound listed as COc1ccc(-c2cc(CN3CCC(N4CCCC4=O)c4cc(Br)ccc43)on2)cc1OC (stereo not shown) shows pIC50 equal to 4.02

Memo: COc1ccc(-c2cc(CN3CCC(N4CCCC4=O)c4ccccc43)on2)cc1 (stereo not shown) , reported pIC50: 4.37

Recorded result, COc1ccc2c(c1)C(N1CCCC1=O)CCN2Cc1cc(-c2cc(OC)c(OC)c(OC)c2)no1 (stereo not shown) , pIC50: 4.69

The compound listed as COc1cc(Cl)c2c(c1)C(N1CCCC1=O)CCN2Cc1cc(-c2ccc(OC)c(OC)c2)no1 (stereo not shown) shows pIC50 equal to 4.26

So, O=C1CCCN1C1CCN(Cc2cc(-c3ccccc3)no2)c2ccccc21 (stereo not shown) ? Its pIC50 was 3.98

Documented pIC50 of CCc1ccc2c(c1)C(N1CCCC1=O)CCN2Cc1cc(-c2ccccc2)no1 (stereo not shown) : 4.12

For reference, reported pIC50 for COc1cc(-c2cc(CN3CCC(N4CCCC4=O)c4ccccc43)on2)cc(OC)c1OC (stereo not shown) stands at 4.66

Data point: COc1cc(-c2cc(CN3CCC(N4CCCC4=O)c4cc(F)ccc43)on2)cc(OC)c1OC (stereo not shown) ; pIC50 = 4.61

Looking up COc1ccc(-c2cc(CN3CCC(N4CCCC4=O)c4cc(C)cc(Cl)c43)on2)cc1OC (stereo not shown) , I see its pIC50 listed as 4.26

GET /value?item= O=C1CCCN1C1CCN(Cc2cc(-c3ccccc3)no2)c2ccc(Cl)cc21 (stereo not shown) &field=pIC50 returns 4.04

Measured pIC50 of COc1cc(-c2cc(CN3CCC(N4CCCC4=O)c4cc(C)ccc43)on2)cc(OC)c1OC (stereo not shown) : 4.14

Recorded pIC50 (compound CCc1cc(Cl)c2c(c1)C(N1CCCC1=O)CCN2Cc1cc(-c2ccc(OC)c(OC)c2)no1 (stereo not shown) ): 4.57

Record COc1ccc(-c2cc(CN3CCC(N4CCCC4=O)c4cc(Br)ccc43)on2)cc1 (stereo not shown) . Reported pIC50: 4.91

In plain terms, COc1ccc(-c2cc(CN3CCC(N4CCCC4=O)c4cc(F)ccc43)on2)cc1 (stereo not shown) has a documented pIC50 of 4.37

Measured pIC50, Cc1ccc2c(c1)C(N1CCCC1=O)CCN2Cc1cc(-c2ccccc2)no1 (stereo not shown) : 4.42

COc1ccc(-c2cc(CN3CCC(N4CCCC4=O)c4cc(Cl)ccc43)on2)cc1 (stereo not shown) yielded pIC50 of 4.88

// field: pIC50; key: COc1ccc(-c2cc(CN3CCC(N4CCCC4=O)c4cc(OC)ccc43)on2)cc1 (stereo not shown) ; value = 4.07

So for COc1cc(-c2cc(CN3CCC(N4CCCC4=O)c4cc(Cl)ccc43)on2)cc(OC)c1OC (stereo not shown) , the logged pIC50 turned out to be 4.38

* * *

What IC50 was measured for each of the following?
- Test target: BChE (from bovine serum) (Bos taurus, UniProt P32749)
- Construct: purchased Sigma-Aldrich
- Sequence (P32749 29-602): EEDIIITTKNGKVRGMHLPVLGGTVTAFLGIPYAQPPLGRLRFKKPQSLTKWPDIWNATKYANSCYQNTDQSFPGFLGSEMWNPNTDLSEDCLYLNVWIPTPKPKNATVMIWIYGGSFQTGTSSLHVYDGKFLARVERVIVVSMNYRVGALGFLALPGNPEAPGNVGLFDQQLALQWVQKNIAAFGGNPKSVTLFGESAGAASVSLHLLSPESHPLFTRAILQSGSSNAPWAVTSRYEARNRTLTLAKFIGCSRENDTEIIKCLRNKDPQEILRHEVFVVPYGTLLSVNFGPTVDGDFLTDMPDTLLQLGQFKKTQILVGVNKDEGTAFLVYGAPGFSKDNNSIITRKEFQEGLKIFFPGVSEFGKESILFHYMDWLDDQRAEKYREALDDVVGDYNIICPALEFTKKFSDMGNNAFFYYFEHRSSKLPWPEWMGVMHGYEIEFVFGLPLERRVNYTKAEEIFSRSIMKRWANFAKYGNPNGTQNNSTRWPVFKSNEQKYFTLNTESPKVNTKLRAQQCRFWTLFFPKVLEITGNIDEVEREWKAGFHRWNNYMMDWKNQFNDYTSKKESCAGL
- Assay notes: BChE inhibitory activity (Ellman method)
- Assay type: biochemical
- Applied conditions: Table 1, THQ–isoxazoline hybrids 5; average from three independent experiments ± SEM; read-out: IC50 BChE
Number only, in µM; omit the unit.

The reported value for COc1ccc2c(c1)C(N1CCCC1=O)CCN2CC1CC(c2ccccc2)=NO1 (stereo not drawn) in terms of IC50 is 146

For this molecule ( COc1ccc(C2=NOC(CN3CCC(N4CCCC4=O)c4cc(OC)ccc43)C2)cc1 (stereo not drawn) ), measured IC50 is 145

Reported IC50 ( O=C1CCCN1C1CCN(CC2CC(c3ccccc3)=NO2)c2ccc(Cl)cc21 (stereo not drawn) ) = 19.1

Field IC50 (entry COc1ccc(C2=NOC(CN3CCC(N4CCCC4=O)c4cc(Cl)ccc43)C2)cc1OC (stereo not drawn) ) reads 83.7

Looking up COc1cc(C2=NOC(CN3CCC(N4CCCC4=O)c4cc(Cl)ccc43)C2)cc(OC)c1OC (stereo not drawn) , I see its IC50 listed as 106

Kindly note the recorded IC50 for COc1ccc(C2=NOC(CN3CCC(N4CCCC4=O)c4ccccc43)C2)cc1 (stereo not drawn) , which is 65.6

# IC50 (molecule: COc1cc(C2=NOC(CN3CCC(N4CCCC4=O)c4ccccc43)C2)cc(OC)c1OC (stereo not drawn) ) is 13.7

Reported IC50 ( Cc1ccc2c(c1)C(N1CCCC1=O)CCN2CC1CC(c2ccccc2)=NO1 (stereo not drawn) ) = 31.4

The measured IC50 associated with COc1ccc2c(c1)C(N1CCCC1=O)CCN2CC1CC(c2cc(OC)c(OC)c(OC)c2)=NO1 (stereo not drawn) reads 43.7

* * *

- Test target: AChE (from Electrophorus electricus) (Electrophorus electricus)
- Sequence (O42275 24-633): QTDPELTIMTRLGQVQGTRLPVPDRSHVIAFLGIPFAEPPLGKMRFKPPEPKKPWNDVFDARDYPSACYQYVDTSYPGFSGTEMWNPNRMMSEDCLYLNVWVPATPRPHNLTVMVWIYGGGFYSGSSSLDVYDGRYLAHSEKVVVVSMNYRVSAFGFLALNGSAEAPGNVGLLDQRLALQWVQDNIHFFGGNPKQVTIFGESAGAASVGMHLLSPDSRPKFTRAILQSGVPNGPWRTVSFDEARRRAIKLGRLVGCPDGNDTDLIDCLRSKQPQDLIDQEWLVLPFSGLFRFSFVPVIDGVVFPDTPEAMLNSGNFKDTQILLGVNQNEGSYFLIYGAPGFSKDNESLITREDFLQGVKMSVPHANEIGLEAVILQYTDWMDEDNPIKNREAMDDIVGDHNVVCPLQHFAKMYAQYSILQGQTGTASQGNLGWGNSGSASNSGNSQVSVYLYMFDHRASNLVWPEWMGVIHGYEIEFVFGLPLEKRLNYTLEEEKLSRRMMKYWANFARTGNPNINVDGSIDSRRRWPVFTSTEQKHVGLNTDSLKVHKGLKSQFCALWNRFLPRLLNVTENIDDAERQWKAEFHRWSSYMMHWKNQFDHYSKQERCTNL
Think of 1 as a floor: if SI stands on it or above, it is class 1; beneath it, class 0.

QUERY: Determine whether this compound has SI no lower than 1: COc1ccc(-c2cc(CN3CCC(N4CCCC4=O)c4cc(F)ccc43)on2)cc1OC (stereo not drawn)
RESULT: class 1

QUERY: Quick check, SI >= 1? COc1ccc(-c2cc(CN3CCC(N4CCCC4=O)c4cc(Cl)ccc43)on2)cc1OC (stereo not drawn)
RESULT: class 1

QUERY: Does the compound COc1cc(-c2cc(CN3CCC(N4CCCC4=O)c4cc(Cl)ccc43)on2)cc(OC)c1OC (stereo not drawn) have recorded SI that is 1 or more?
RESULT: class 1

QUERY: Answer whether SI of COc1ccc2c(c1)C(N1CCCC1=O)CCN2CC1CC(c2cc(OC)c(OC)c(OC)c2)=NO1 (stereo not drawn) is greater than or equal to 1.
RESULT: class 0

QUERY: Threshold query (SI >= 1) on COc1cc(C2=NOC(CN3CCC(N4CCCC4=O)c4cc(C)ccc43)C2)cc(OC)c1OC (stereo not drawn)
RESULT: class 1

QUERY: Check if SI >= 1 (inclusive). Item: COc1ccc(C2=NOC(CN3CCC(N4CCCC4=O)c4cc(Cl)ccc43)C2)cc1OC (stereo not drawn)
RESULT: class 1

QUERY: Is it the case that COc1ccc(C2=NOC(CN3CCC(N4CCCC4=O)c4cc(C)ccc43)C2)cc1 (stereo not drawn) has SI reaching or exceeding 1?
RESULT: class 1

QUERY: Please tell me: is the compound COc1ccc(-c2cc(CN3CCC(N4CCCC4=O)c4ccccc43)on2)cc1 (stereo not drawn) at or over 1 in terms of SI?
RESULT: class 0

QUERY: Does the reported SI for Cc1ccc2c(c1)C(N1CCCC1=O)CCN2Cc1cc(-c2ccccc2)no1 (stereo not drawn) fall at or above the 1 mark?
RESULT: class 0

* * *

- Test target: BChE (from bovine serum) (Bos taurus)
- Construct: purchased Sigma-Aldrich
- Assay notes: BChE inhibitory activity (Ellman method)
- Assay type: biochemical
- Applied conditions: Table 1, THQ–isoxazoline hybrids 5; average from three independent experiments ± SEM; read-out: IC50 BChE
pIC50: −log10 of the molar value.
# cutoff 4 applies to pIC50; >= gives 1, < gives -1

QUERY: I'd appreciate it if you could say whether COc1ccc2c3c1O[C@H]1C[C@@H](O)C=C[C@@]31CCN(C)C2 [Galantamine, galantamine, reference compound] has pIC50 at least equal to 4.
RESULT: 1

QUERY: Tell me whether pIC50 is at least 4 here: COc1ccc(C2=NOC(CN3CCC(N4CCCC4=O)c4cc(C)ccc43)C2)cc1 (stereo not shown)
RESULT: 1

QUERY: In plain terms: is recorded pIC50 at least 4 for COc1ccc(C2=NOC(CN3CCC(N4CCCC4=O)c4cc(C)ccc43)C2)cc1OC (stereo not shown) ?
RESULT: 1

QUERY: Quick check, pIC50 >= 4? COc1ccc(C2=NOC(CN3CCC(N4CCCC4=O)c4cc(Cl)ccc43)C2)cc1 (stereo not shown)
RESULT: 1

QUERY: Could you verify whether the entry COc1ccc2c(c1)C(N1CCCC1=O)CCN2CC1CC(c2ccc(OC)c(OC)c2)=NO1 (stereo not shown) shows pIC50 of no less than 4?
RESULT: -1

QUERY: Form field: pIC50 at least 4? Entry: COc1cc(C2=NOC(CN3CCC(N4CCCC4=O)c4cc(C)ccc43)C2)cc(OC)c1OC (stereo not shown)
RESULT: 1
